Target system: T1, recombinant biotinylated human PAR2 extracellular domain (residues 1-75), N-terminal AviTag, C-terminal Flag … (human, UniProt P55085 26-75, biotin on the AviTag (enzymatic biotinylation))
T1 construct: also called Bio-human-PAR2 ECD; human PAR2 ECD; not shown: N-terminal AviTag (Avidity LLC); C-terminal Flag and poly Histidine tags
T1 sequence (P55085 26-75): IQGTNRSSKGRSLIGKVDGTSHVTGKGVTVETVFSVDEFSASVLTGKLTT
Measurement description: HTRF competition with Par0067 IgG, pH 6.0, scFv
What IC50 was measured for each of the following?
Answers are plain numbers, in nM.

Recorded IC50, per entry:
{"Binder": "PaB670020 scFv (scFv, V domains shown, purified scFv; also called ZZ1IGD-D05) VH: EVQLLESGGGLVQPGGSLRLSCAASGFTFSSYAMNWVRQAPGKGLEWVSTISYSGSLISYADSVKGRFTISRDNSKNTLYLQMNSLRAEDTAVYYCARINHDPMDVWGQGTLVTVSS VL: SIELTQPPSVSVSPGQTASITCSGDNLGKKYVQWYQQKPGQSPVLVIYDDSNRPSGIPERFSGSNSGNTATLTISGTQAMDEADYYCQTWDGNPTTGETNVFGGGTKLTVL", "IC50, nM": 18.5}
{"Binder": "PaB670089 scFv (scFv, V domains shown, purified scFv; also called ZZ1ODR-C05) VH: EVQLLESGGGLVQPGGSLRLSCAASGFTFSSYAMNWVRQAPGKGLEWVSTISYHGSHISHADHVHGRFTISRDNSKNTLYLQMNSLRAEDTAVYYCARINNDPMDVWGQGTLVTVSS VL: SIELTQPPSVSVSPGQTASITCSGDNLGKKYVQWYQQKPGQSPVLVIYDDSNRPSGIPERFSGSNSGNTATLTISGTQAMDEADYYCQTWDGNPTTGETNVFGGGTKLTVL", "IC50, nM": 134}

Okay, next one:
q: Please report the recorded IC50 for Par0067 scFv (scFv, V domains shown, purified scFv, parent clone; also called ZZ15D2-D02) VH: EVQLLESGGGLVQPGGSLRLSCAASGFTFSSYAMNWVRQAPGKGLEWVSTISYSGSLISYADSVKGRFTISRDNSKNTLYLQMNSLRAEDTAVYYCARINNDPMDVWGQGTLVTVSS VL: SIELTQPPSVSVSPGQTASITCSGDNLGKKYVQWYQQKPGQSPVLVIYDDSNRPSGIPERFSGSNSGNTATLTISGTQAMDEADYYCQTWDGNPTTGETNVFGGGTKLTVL .
a: 3.6
